# Test system: HCV GT1b replicon
# assay_overview: HCV GT1b replicon luciferase reporter assay (2209-23 cells)
# Assay type: cell-based
# experimental_parameters: Hepatitis C virus, genotype 1a / genotype 1b; 2209-23 cells (Huh-7 with GT-1b Con1 subgenomic replicon), Renilla luciferase read 72 hours after compound addition; read-out: GT-1a - EC50 (nM) HCV, GT1b, IC50 (µM)
Hi! Just check whether IC50 is below 200 nM. Below gives satisfied, equal or above gives not satisfied.

[
  {
    "structure_string": "CCOC(=O)[C@@H]1C[C@H](NC(=O)c2ccc3ccccc3c2O)CN1CC1CCCCC1",
    "category": "satisfied"
  },
  {
    "structure_string": "COC(=O)[C@@H]1C[C@H](NC(=O)c2ccc3ccccc3c2N)CN1CC1CCCCC1",
    "category": "not satisfied"
  },
  {
    "structure_string": "COC(=O)[C@@H]1C[C@H](NC(=O)c2ccc3ccccc3c2O)CN1Cc1ccccc1",
    "category": "satisfied"
  },
  {
    "structure_string": "NC(=O)[C@@H]1C[C@H](NC(=O)c2ccc3ccccc3c2O)CN1CC1CCCCC1",
    "category": "not satisfied"
  },
  {
    "structure_string": "O=C(N[C@H]1C[C@@H](c2ncc(-c3ccccc3)o2)N(CC2CCCCC2)C1)c1ccc2ccccc2c1O",
    "category": "satisfied"
  },
  {
    "structure_string": "COC(=O)[C@@H]1C[C@H](NC(=O)c2ccc3ccccc3c2O)CCN1CC1CCCCC1",
    "category": "satisfied"
  },
  {
    "structure_string": "COC(=O)[C@]1(C)C[C@H](NC(=O)c2ccc3ccccc3c2O)CN1CC1CCCCC1",
    "category": "not satisfied"
  },
  {
    "structure_string": "COC(=O)[C@@H]1C[C@H](NC(=O)c2ccc3ccccc3c2O)CN1CC1CCCCC1",
    "category": "satisfied"
  },
  {
    "structure_string": "O=C(N[C@H]1C[C@@H](C(=O)NCc2ccccc2)N(CC2CCCCC2)C1)c1ccc2ccccc2c1O",
    "category": "satisfied"
  },
  {
    "structure_string": "COC(=O)[C@@H]1C[C@@H](NC(=O)c2ccc3ccccc3c2O)CN1CC1CCCCC1",
    "category": "not satisfied"
  },
  {
    "structure_string": "COC(=O)[C@@H]1C[C@H](NC(=O)c2ccc3ccccc3c2O)CN1CCC(C)(C)C",
    "category": "satisfied"
  },
  {
    "structure_string": "CCNC(=O)[C@@H]1C[C@H](NC(=O)c2ccc3ccccc3c2O)CCN1CC1CCCCC1",
    "category": "not satisfied"
  },
  {
    "structure_string": "Cc1cnc([C@@H]2C[C@H](NC(=O)c3ccc4ccccc4c3O)CN2CC2CCCCC2)o1",
    "category": "satisfied"
  },
  {
    "structure_string": "CCOC(=O)[C@@H]1C[C@H](NC(=O)c2ccc3ccccc3c2O)CN1CC1CCCC1",
    "category": "satisfied"
  },
  {
    "structure_string": "O=C(N[C@H]1C[C@@H](c2nc3ccccc3o2)N(CC2CCCCC2)C1)c1ccc2ccccc2c1O",
    "category": "satisfied"
  }
]

----------
Catalogue of compounds with associated IC50
# System: HCV GT1b replicon
# assay_overview: HCV GT1b replicon luciferase reporter assay (2209-23 cells)
# Assay type: cell-based
# experimental_parameters: Hepatitis C virus, genotype 1a / genotype 1b; 2209-23 cells (Huh-7 with GT-1b Con1 subgenomic replicon), Renilla luciferase read 72 hours after compound addition; read-out: GT-1a - EC50 (nM) HCV, GT1b, IC50 (µM)
value_kind: IC50

[
  {
    "structure_string": "CCOC(=O)[C@@H]1C[C@H](NC(=O)c2ccc3cccnc3c2O)CN1CC1CCCCC1",
    "value_kind": "IC50",
    "recorded_value": "367 nM"
  },
  {
    "structure_string": "COC(=O)[C@H]1C[C@H](NC(=O)c2ccc3ccccc3c2O)CN1CC1CCCCC1",
    "value_kind": "IC50",
    "recorded_value": "233 nM"
  },
  {
    "structure_string": "CC(C)NC(=O)[C@@H]1C[C@H](NC(=O)c2ccc3ccccc3c2O)CN1CC1CCCCC1",
    "value_kind": "IC50",
    "recorded_value": "187 nM"
  },
  {
    "structure_string": "CCOC(=O)[C@@H]1C[C@H](NC(=O)c2ccc3ccccc3c2O)CCN1CC1CCCCC1",
    "value_kind": "IC50",
    "recorded_value": "51 nM"
  },
  {
    "structure_string": "CCOC(=O)[C@@H]1C[C@@H](NC(=O)c2ccc3ccccc3c2O)CN1Cc1ccccc1",
    "value_kind": "IC50",
    "recorded_value": "659 nM"
  },
  {
    "structure_string": "CC(C)(C)OC(=O)[C@@H]1C[C@H](NC(=O)c2ccc3ccccc3c2O)CN1CC1CCCCC1",
    "value_kind": "IC50",
    "recorded_value": "47 nM"
  },
  {
    "structure_string": "CCOC(=O)[C@@H]1C[C@H](NC(=O)c2ccc3ccccc3c2O)CN1CC(C)C",
    "value_kind": "IC50",
    "recorded_value": "299 nM"
  },
  {
    "structure_string": "O=C(N[C@H]1C[C@@H](c2ncco2)N(CC2CCCCC2)C1)c1ccc2ccccc2c1O",
    "value_kind": "IC50",
    "recorded_value": "114 nM"
  }
]
